# applied conditions: in ethanol, 313.15 K
observable: solubility (mole fraction)
Would you mind answering with just the numeric figure?

**Q:** Returns the measured solubility (mole fraction) for the input compound. Input: OC[C@@H](O)[C@@H](O[C@H]1O[C@H](CO)[C@@H](O)[C@H](O)[C@H]1O)[C@H](O)[C@@H](O)CO
**A:** 6.2e-05

* * *

# applied conditions: in isopropanol, 313.15 K
observable: solubility (mole fraction)
Would you mind answering with just the numeric figure?

**Q:** Returns the measured solubility (mole fraction) for the input molecule. Input: OC[C@@H](O)[C@@H](O[C@H]1O[C@H](CO)[C@@H](O)[C@H](O)[C@H]1O)[C@H](O)[C@@H](O)CO
**A:** 3e-05
